test system: P. falciparum 3D7 growth, pLDH absorbance; assay: blood-stage malaria parasite growth potency – strain 3D7, dose response (AID 2305)
pIC50: −log10 of the molar value.
Readout name: pIC50

{"columns": ["Compound", "Readout name", "Observed value"],
 "data": [
  ["CN1CCCN(c2ccnc3cc4c(cc23)N(C(=O)c2ccc(Cl)cc2)CC4)CC1", "pIC50", 6.10],
  ["CC(C)NCC(O)COc1ccc(Cc2ccc(OCC(O)CNC(C)C)cc2)cc1 (stereo not given)", "pIC50", 6.19],
  ["O=C(NCC1CC1)C1CCN(C(c2ccc(Cl)cc2)c2ccc(Cl)cc2)CC1", "pIC50", 6.72],
  ["CCCc1cc(Cc2cnc(N)nc2N)cc(CC)c1OC", "pIC50", 6.09],
  ["O=C(Nc1cccc(-c2nc3ccccc3s2)c1)c1ccccc1[N+](=O)[O-]", "pIC50", 6.11],
  ["NC1=NC(c2ccccc2)(c2ccccc2)C(=O)N1Cc1ccc(-c2cccnc2)cc1", "pIC50", 6.15],
  ["N#CCc1ccc(Nc2nccc(Nc3ccc(Oc4ccccc4)cc3)n2)cc1", "pIC50", 6.09],
  ["CCCC(C)NC(=O)[C@H](Cc1ccccc1)NC(=O)c1ccc(O)c(-c2ccc(OC)cc2)c1 (stereo not given in full)", "pIC50", 5.91],
  ["COc1cccc(NC(=O)Nc2ccc(-c3oc(C(=O)NCC(c4ccccc4)N(C)C)cc3-c3ccncc3)cc2)c1 (stereo not given)", "pIC50", 5.74],
  ["COc1cc2nc(N(C)C3CCN(Cc4ccccc4)CC3)nc(N)c2cc1OC", "pIC50", 6.48]
]}
